# EXPERIMENTAL SYSTEM: human PMNL LTB4 receptor (Homo sapiens, UniProt Q15722)
# Construct: endogenous in cells
# Sequence (Q15722 whole entry): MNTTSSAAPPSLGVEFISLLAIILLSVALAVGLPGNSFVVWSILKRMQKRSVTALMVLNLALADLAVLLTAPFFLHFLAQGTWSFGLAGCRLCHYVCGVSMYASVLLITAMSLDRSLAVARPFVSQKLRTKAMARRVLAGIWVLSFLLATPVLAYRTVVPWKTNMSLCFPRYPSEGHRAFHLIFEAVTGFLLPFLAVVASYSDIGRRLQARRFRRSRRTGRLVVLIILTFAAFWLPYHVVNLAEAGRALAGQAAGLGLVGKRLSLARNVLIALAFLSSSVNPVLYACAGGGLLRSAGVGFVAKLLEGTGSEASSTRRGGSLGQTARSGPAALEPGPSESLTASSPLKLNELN
# METHOD SUMMARY: Binding affinity of 3H-LTB4 antagonist to human PMNL LTB4 receptor (inhibition of specific 3H-LTB4 binding)
# TEST CONDITIONS: 1 nM 3H-LTB4, human PMNLs, 4° C., 20 min
MEASUREMENT LABEL: IC50 (nM)

Worked cases, IC50 given:
COc1ccc(/C=C/CCCCOc2ccc(NC(=O)c3ccccc3)cc2CCC(=O)O)cc1 [3 (a)]    200
COc1ccc(CCCCCCOc2ccc(NC(=O)CCCC(=O)N(C)C)cc2CCC(=O)O)cc1 [1 (j)]    200

A: COc1ccc(/C=C/CCCCOc2cccc(N(S(C)(=O)=O)S(C)(=O)=O)c2CCC(=O)O)cc1 [Example 35]
B: COc1ccc(/C=C/CCCCOc2ccc(OCCCCC(=O)N(C)C)cc2CCC(=O)O)cc1 [Example 16]
C: COc1ccc(/C=C/CCCCOc2cccc(NC(=O)CCCC(=O)N(C)C)c2CCC(=O)O)cc1 [Example 32]
Prompt line: Arrange these 3 molecules in increasing order of IC50. In your reply, arrange the labels in the requested order.
Response line: C, B, A

----------
# EXPERIMENTAL SYSTEM: human PMNL LTB4 receptor (Homo sapiens, UniProt Q15722)
# Construct: endogenous in cells
# METHOD SUMMARY: Binding affinity of 3H-LTB4 antagonist to human PMNL LTB4 receptor (inhibition of specific 3H-LTB4 binding)
# TEST CONDITIONS: 1 nM 3H-LTB4, human PMNLs, 4° C., 20 min
MEASUREMENT LABEL: IC50 (nM)

CCCOc1ccc(/C=C/CCCCOc2ccc(NC(=O)CCCC(=O)N(C)C)cc2CCC(=O)O)cc1 [1 (e)]    80
COc1ccc(/C=C/CCCCOc2cccc(C(O)CCCCC(=O)O)c2CCC(=O)O)cc1 (stereo not drawn)    120
COc1ccc(/C=C/CCCCOc2ccc(NC(=O)CCCCO)cc2CCC(=O)O)cc1    90
